Just for reference, patent EP4257133A1 is where these values come from.

experimental-target: phosphorylated recombinant human PRDX6 (Homo sapiens)
Sequence (P30041 whole entry): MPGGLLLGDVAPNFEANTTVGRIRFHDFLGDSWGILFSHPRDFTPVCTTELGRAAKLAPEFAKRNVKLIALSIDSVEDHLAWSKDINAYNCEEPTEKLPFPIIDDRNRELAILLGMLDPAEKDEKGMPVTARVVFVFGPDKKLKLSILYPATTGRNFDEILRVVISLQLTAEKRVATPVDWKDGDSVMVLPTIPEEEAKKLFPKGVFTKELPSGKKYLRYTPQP
assay-summary: Radioactive PLA2 activity assay
test-context: read-out: IC50 of inhibition of PLA2 activity of PRDX6
pIC50: −log10 of the molar value.
measure: pIC50

[ask] Look at this compound and give its reported pIC50. CCN(CC)CCN(Cc1ccc(-c2ccc(C(F)(F)F)cc2)cc1)C(=O)Cn1c(SCc2ccc(F)cc2)nc(=O)c2c1CCC2 [Darapladib]
[reply] ~6.30
